Measured EC50 of individual entries
Biological target: UniProt:O60603
Sequence (O60603 21-784): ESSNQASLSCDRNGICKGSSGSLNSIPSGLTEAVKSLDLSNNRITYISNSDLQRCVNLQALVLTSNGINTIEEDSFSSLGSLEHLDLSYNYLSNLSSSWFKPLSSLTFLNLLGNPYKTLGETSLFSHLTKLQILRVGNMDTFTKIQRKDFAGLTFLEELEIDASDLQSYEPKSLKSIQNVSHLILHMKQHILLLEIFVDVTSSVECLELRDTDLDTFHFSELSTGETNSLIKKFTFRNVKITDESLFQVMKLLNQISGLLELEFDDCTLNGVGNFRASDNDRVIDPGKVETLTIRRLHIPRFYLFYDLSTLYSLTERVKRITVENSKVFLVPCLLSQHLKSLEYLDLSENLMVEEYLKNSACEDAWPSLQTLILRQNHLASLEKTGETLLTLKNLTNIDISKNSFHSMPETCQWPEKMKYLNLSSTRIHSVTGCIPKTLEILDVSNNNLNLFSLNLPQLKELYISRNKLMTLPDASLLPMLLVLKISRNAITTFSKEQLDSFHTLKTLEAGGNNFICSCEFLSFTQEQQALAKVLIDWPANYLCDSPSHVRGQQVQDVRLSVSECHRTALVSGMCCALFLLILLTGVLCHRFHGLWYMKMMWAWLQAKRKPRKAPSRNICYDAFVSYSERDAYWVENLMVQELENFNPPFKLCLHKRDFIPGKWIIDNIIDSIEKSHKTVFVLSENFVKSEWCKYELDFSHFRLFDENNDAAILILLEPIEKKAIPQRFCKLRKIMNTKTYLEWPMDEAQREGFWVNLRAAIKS
Experiment: TLR2 agonist screening assay, HEK-Blue TLR2 reporter cell line (NF-kB-driven SEAP, absorbance at 600 nm)
Assay type: cell-based
Design: host or cells: HEK-293 (HEK-Blue TLR2 reporter cell line)
Details: HEK-Blue TLR2 reporter cells, agonist mode; average of all runs (Table 4)
Source text: TLRs are a class of cell-surface receptors expressed on many different cell types that recognize conserved structural motifs present on pathogen-derived molecules. TLR2 recognizes bacteria-derived lipopeptides. […] The in vitro TLR2 assay consists of a cell line that responds to TLR2 engagement by producing a factor that elicits a color change in the culture media and can be readily measured by various colorimetric detection methods. […]
assay.endpoint: EC50

CCCCCCCCCCCCCCNC(=O)[C@@H]1CN(C(=O)c2ccc(C(=O)N3C[C@@H](C(=O)N[C@H]4C[C@@H]4c4ccccc4)[C@H](C(=O)N[C@H]4C[C@@H]4c4ccccc4)C3)cc2)CCN1C(=O)C(C)C	> 1000 nM
CCCCCCNC(=O)[C@H](CN[C@H](c1ccc(C(=O)N2C[C@@H](C(=O)N[C@H]3C[C@@H]3c3ccccc3)[C@H](C(=O)N[C@H]3C[C@@H]3c3ccccc3)C2)cc1)C(F)(F)F)NC(=O)CCCCCC (single isomer, unassigned)	51 to 350 nM
CCCCCCCCCC(=O)N[C@@H](CNC(=O)c1ccc(C(=O)N2C[C@@H](C(=O)N[C@H]3C[C@@H]3c3ccccc3)[C@H](C(=O)N[C@H]3C[C@@H]3c3ccccc3)C2)cc1)C(=O)NCCCCCC	0.1 to 50 nM
CCCCCCCCCCCCCCC(=O)N[C@@H]1CCCN(C(=O)c2ccc(C(=O)N3C[C@@H](C(=O)N[C@H]4C[C@@H]4c4ccccc4)[C@H](C(=O)N[C@H]4C[C@@H]4c4ccccc4)C3)cc2)C1	0.1 to 50 nM
CCCCCCCO[C@@H]1CN(C(=O)c2ccc(C(=O)N3C[C@@H](C(=O)N[C@H]4C[C@@H]4c4ccccc4)[C@H](C(=O)N[C@H]4C[C@@H]4c4ccccc4)C3)cc2)C[C@@H]1C(=O)NCCCCCC (relative stereo)	351 to 1000 nM
CCCCCCC(=O)N[C@@H](CNC(=O)c1ccc(C(=O)N2C[C@@H](C(=O)N[C@H]3C[C@@H]3c3ccccc3)[C@H](C(=O)N[C@H]3C[C@@H]3c3ccccc3)C2)cc1)C(=O)NCCc1ccc(F)cc1	51 to 350 nM
CCCCCCCCCCCCCCNC(=O)C1CC(=O)N(Cc2ccc(C(=O)N3C[C@@H](C(=O)N[C@H]4C[C@@H]4c4ccccc4)[C@H](C(=O)N[C@H]4C[C@@H]4c4ccccc4)C3)cc2)C1 (stereo partly drawn)	> 1000 nM
CCCCCCNC(=O)[C@H](CNC(=O)c1ccc(C(=O)N2C[C@@H](C(=O)N[C@H]3C[C@@H]3c3ccccc3)[C@H](C(=O)N[C@H]3C[C@@H]3c3ccccc3)C2)cc1)NC(=O)N[C@H]1C[C@@H]1c1ccccc1	0.1 to 50 nM
CCCCCCCCCCCCNC(=O)N[C@H]1CN(C(=O)c2ccc(C(=O)N3C[C@@H](C(=O)N[C@H]4C[C@@H]4c4ccccc4)[C@H](C(=O)N[C@H]4C[C@@H]4c4ccccc4)C3)cc2)C[C@@H]1OC	0.1 to 50 nM
